Biological target: Human Polymorphonuclear Leukocyte Elastase (Homo sapiens, UniProt P08246)
Construct: Crude extract of human polymorphonuclear leukocytes (PMN) containing elastase activity; from tissue; host or cells: human polymorphonuclear leukocytes (crude extract)
Experiment: Enzyme assay for inhibition of human polymorphonuclear leukocyte elastase via hydrolysis of Boc-AAPAN or Boc-AAPVN
Assay type: biochemical
Conditions: pH 7.5, second order rate constant for inactivation of the enzyme, expressed to the nearest thousand, read-out: Kobs/[I]
We begin with a simple list: items and their reported kinact/KI.
Metric: kinact/KI (M⁻¹ s⁻¹)

[[record]]
compound = "CCC[C@@H](NC(=O)N1C(=O)C(CC)(CC)[C@@H]1Oc1ccc(C(=O)N(CCN(C)Cc2ccccc2)Cc2ccncc2)cc1)c1ccc(C)cc1"
value_measured = "2.24e+06"

[[record]]
compound = "CCC[C@@H](NC(=O)N1C(=O)C(CC)(CC)[C@@H]1Oc1ccc(CC(=O)OCC(=O)O)cc1)c1ccc(C)cc1"
value_measured = "1.01e+06"

[[record]]
compound = "CCC[C@@H](NC(=O)N1C(=O)C(CC)(CC)[C@@H]1Oc1ccc(C(=O)N2CCN(C)CC2)cc1)c1ccc(OC)cc1"
value_measured = "1.84e+06"

[[record]]
compound = "CCC[C@@H](NC(=O)N1C(=O)C(CC)(CC)[C@@H]1Oc1ccc(C(=O)N2CCN(C3CC3)CC2)cc1)c1ccc2c(c1)OCO2"
value_measured = "4.5e+06"

[[record]]
compound = "CCC[C@@H](NC(=O)N1C(=O)C(CC)(CC)[C@@H]1Oc1ccc(C(=O)N2CC3CC2CN3C)cc1)c1ccc(C)cc1 (stereo partly drawn)"
value_measured = 860000

[[record]]
compound = "CCC[C@@H](NC(=O)N1C(=O)C(CC)(CC)[C@@H]1Oc1ccc(C(=O)N(C)CCN(C)Cc2ccncc2)cc1)c1ccc(C)cc1"
value_measured = "2.39e+06"

[[record]]
compound = "CCC[C@@H](NC(=O)N1C(=O)C(CC)(CC)[C@@H]1Oc1ccc(C(=O)OCCN2CCNCC2)cc1)c1ccc(C)cc1"
value_measured = "1.71e+06"

[[record]]
compound = "C=CCN(C)CCN(C)C(=O)c1ccc(O[C@@H]2N(C(=O)N[C@H](CCC)c3ccc(C)cc3)C(=O)C2(CC)CC)cc1"
value_measured = "1.36e+06"

[[record]]
compound = "CCC[C@@H](NC(=O)N1C(=O)C(CC)(CC)[C@@H]1Oc1ccc(C(=O)N(C)C2CCCN(CC)C2)cc1)c1ccc(C)cc1 (stereo partly drawn)"
value_measured = "1.54e+06"

[[record]]
compound = "CCC[C@@H](NC(=O)N1C(=O)C(CC)(CC)[C@@H]1Oc1ccc(C(=O)N(C)C)cc1)c1ccc(C)cc1"
value_measured = "1.75e+06"

[[record]]
compound = "CCC[C@@H](NC(=O)N1C(=O)C(CC)(CC)[C@@H]1Oc1ccc(CC(=O)N2CCN(C)CC2)cc1)c1ccc(C)cc1"
value_measured = 974000

[[record]]
compound = "CCC[C@@H](NC(=O)N1C(=O)C(CC)(CC)[C@@H]1Oc1ccc(C(=O)OCC(=O)N2CCC[C@H]2C(=O)NCc2ccccc2)cc1)c1ccc(C)cc1"
value_measured = "4.96e+06"

[[record]]
compound = "CCC[C@@H](NC(=O)N1C(=O)C(CC)(CC)[C@@H]1Oc1ccc(C(=O)NCCN2CCCC(O)C2)cc1)c1ccc(C)cc1 (stereo partly drawn)"
value_measured = "1.53e+06"

[[record]]
compound = "CCC[C@@H](NC(=O)N1C(=O)C(CC)(CC)[C@@H]1Oc1ccc(C(=O)N(C)CCN(C)C)cc1)c1ccc(C(=O)N2CCOCC2)cc1"
value_measured = 548000

[[record]]
compound = "CCC[C@@H](NC(=O)N1C(=O)C(CC)(CC)[C@@H]1Oc1ccc(C(=O)N(C)CCN(C)CC(=O)OC(C)(C)C)cc1)c1ccc(C)cc1"
value_measured = "1.83e+06"

[[record]]
compound = "CCC[C@@H](NC(=O)N1C(=O)C(CC)(CC)[C@@H]1Oc1ccc(C(=O)N(C)CCCCCCN(C)Cc2ccccc2)cc1)c1ccc(C)cc1"
value_measured = "2.16e+06"

[[record]]
compound = "CCC[C@@H](NC(=O)N1C(=O)C(CC)(CC)[C@@H]1Oc1ccc(C(=O)N(C)CCc2ccccn2)cc1)c1ccc(C)cc1"
value_measured = "2.27e+06"

[[record]]
compound = "CCC[C@@H](NC(=O)N1C(=O)C(CC)(CC)[C@@H]1Oc1ccc(C(=O)OCCN2CCN(C)CC2)cc1)c1ccc(C)cc1"
value_measured = "4.68e+06"


---

Target: Human Polymorphonuclear Leukocyte Elastase (Homo sapiens)
Construct: Crude extract of human polymorphonuclear leukocytes (PMN) containing elastase activity; from tissue; host or cells: human polymorphonuclear leukocytes (crude extract)
Sequence (P08246 30-267): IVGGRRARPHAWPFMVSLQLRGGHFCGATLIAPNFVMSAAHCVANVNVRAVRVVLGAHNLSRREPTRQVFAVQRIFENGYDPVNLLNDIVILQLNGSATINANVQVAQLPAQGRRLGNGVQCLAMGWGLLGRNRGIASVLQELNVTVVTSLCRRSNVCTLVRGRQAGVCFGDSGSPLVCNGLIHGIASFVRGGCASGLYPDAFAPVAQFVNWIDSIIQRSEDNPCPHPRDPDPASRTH
Assay: Enzyme assay for inhibition of human polymorphonuclear leukocyte elastase via hydrolysis of Boc-AAPAN or Boc-AAPVN
Format: biochemical
Conditions: pH 7.5, second order rate constant for inactivation of the enzyme, expressed to the nearest thousand, read-out: Kobs/[I]
We begin with a simple list: items and their reported kinact/KI.
Metric: kinact/KI (M⁻¹ s⁻¹)

[[record]]
molecule = "CCC[C@@H](NC(=O)N1C(=O)C(CC)(CC)[C@@H]1Oc1ccc(C(=O)N(C)c2ccc(C(=O)NS(=O)(=O)c3ccccc3)cc2)cc1)c1ccc(C)cc1"
value_measured = "3.23e+06"

[[record]]
molecule = "CCC[C@@H](NC(=O)N1C(=O)C(CC)(CC)[C@@H]1Oc1ccc(C(=O)N(C)CCN2CCS(=O)(=O)CC2)cc1)c1ccc(C)cc1"
value_measured = "1.6e+06"

[[record]]
molecule = "CCC[C@@H](NC(=O)N1C(=O)C(CC)(CC)[C@@H]1Oc1ccc(C(=O)NCCN2CCC3(CCCCC3)CC2)cc1)c1ccc(C)cc1"
value_measured = "2.58e+06"

[[record]]
molecule = "CCC[C@@H](NC(=O)N1C(=O)C(CC)(CC)[C@@H]1Oc1ccc(CC(=O)OCCN2CCOCC2)cc1)c1ccc(C)cc1"
value_measured = "1.72e+06"

[[record]]
molecule = "CCC[C@@H](NC(=O)N1C(=O)C(CC)(CC)[C@@H]1Oc1ccc(C(=O)N(C)CCN(C)Cc2cccc(C(F)(F)F)c2)cc1)c1ccc(C)cc1"
value_measured = 564000

[[record]]
molecule = "CCC[C@@H](NC(=O)N1C(=O)C(CC)(CC)[C@@H]1Oc1ccc(C(=O)N(C)CCN(C)C2=CCCCC2)cc1)c1ccc(C)cc1"
value_measured = "1.84e+06"

[[record]]
molecule = "CCC[C@@H](NC(=O)N1C(=O)C(CC)(CC)[C@@H]1Oc1ccc(C(=O)N(C)CCN2CC(C)OC(C)C2)cc1)c1ccc(C)cc1 (stereo partly drawn)"
value_measured = "1.53e+06"

[[record]]
molecule = "CCC[C@@H](NC(=O)N1C(=O)C(CC)(CC)[C@@H]1Oc1ccc(CC(=O)N(C)CCN(C)Cc2ccccc2)cc1)c1ccc(C)cc1"
value_measured = "2.79e+06"

[[record]]
molecule = "CCC[C@@H](NC(=O)N1C(=O)C(CC)(CC)[C@@H]1Oc1ccc(C(=O)N2CCN(CCOC(=O)NC)CC2)cc1)c1ccc(C)cc1"
value_measured = "2.55e+06"

[[record]]
molecule = "CCC[C@@H](NC(=O)N1C(=O)C(CC)(CC)[C@@H]1Oc1ccc(CC(=O)N(C)CCCN(C)Cc2ccccc2)cc1)c1ccc(C)cc1"
value_measured = "1.36e+06"

[[record]]
molecule = "CCC[C@@H](NC(=O)N1C(=O)C(CC)(CC)[C@@H]1Oc1ccc(C(=O)N(CC)CCN(C)C)cc1)c1ccc(C)cc1"
value_measured = "1.44e+06"

[[record]]
molecule = "CCC[C@@H](NC(=O)N1C(=O)C(CC)(CC)[C@@H]1Oc1ccc(CC(=O)N(C)CCN(CC)CC)cc1)c1ccc(C)cc1"
value_measured = "1.32e+06"

[[record]]
molecule = "CCC[C@@H](NC(=O)N1C(=O)C(CC)(CC)[C@@H]1Oc1ccc(C(=O)N2C[C@@H](C)O[C@@H](C)C2)cc1)c1ccc(C)cc1"
value_measured = "1.84e+06"

[[record]]
molecule = "CCC[C@@H](NC(=O)N1C(=O)C(CC)(CC)[C@@H]1Oc1ccc(C(=O)N(C)CC[N+](C)(C)[O-])cc1)c1ccc(C)cc1"
value_measured = "1.59e+06"

[[record]]
molecule = "CCC[C@@H](NC(=O)N1C(=O)C(CC)(CC)[C@@H]1Oc1ccc(C(=O)NC2CCCN(CC)C2)cc1)c1ccc(C)cc1 (stereo partly drawn)"
value_measured = 949000

[[record]]
molecule = "CCC[C@@H](NC(=O)N1C(=O)C(CC)(CC)[C@@H]1Oc1ccc(CC(=O)Nc2cccc(OC)c2)cc1)c1ccc(C)cc1"
value_measured = "1.62e+06"

[[record]]
molecule = "CCC[C@@H](NC(=O)N1C(=O)C(CC)(CC)[C@@H]1Oc1ccc(C(=O)N2CCOCC2)cc1)c1ccc(C)cc1"
value_measured = "2.38e+06"

[[record]]
molecule = "CCC[C@@H](NC(=O)N1C(=O)C(CC)(CC)[C@@H]1Oc1ccc(CC(=O)OCC(C)(C)N(C)C)cc1)c1ccc(C)cc1"
value_measured = "2.1e+06"

